Assay explanation: Solubility of Compound A free base in solvents
Type: physicochemical
Study conditions: organic solvent or mixture; free base; 2-butanol; read-out: Solubility in 2-butanol
Endpoint: solubility

Suppose we examine the molecule `O=C1CN2c3c(cccc3[C@@H]3CN(CCCOc4ccc(F)cc4)CC[C@@H]32)N1` ; what solubility value has been reported?
< 11 mg/mL

----------
Assay explanation: Solubility of Compound A free base in solvents
Assay type: physicochemical
Study conditions: free base; water; read-out: Solubility in water
Endpoint: solubility

So what's the measured solubility for this one? `O=C1CN2c3c(cccc3[C@@H]3CN(CCCOc4ccc(F)cc4)CC[C@@H]32)N1`
< 11 mg/mL
